Recorded abundance fitness by entry
B1: POU domain, class 6, transcription factor 2, residues 609 to 663; numbered along this chain, P78424 (parent)
chain: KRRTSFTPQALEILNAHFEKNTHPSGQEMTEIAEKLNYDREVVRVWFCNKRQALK

Variants of: B1
MEASUREMENT PROTOCOL: abundance fitness (aPCA) (normalised: wild type 0, dead -1); higher = more abundant; growth selection in yeast, the domain comes from the species named
CONDITION SUMMARY: Homo sapiens
// response body must contain only the number

Answered cases to consult:
   variant_string  value
0            K50Y  -1.01
1            H17E  0.064

For record "R3V" the listed abundance fitness is -0.001

For record "E19W" the listed abundance fitness is -0.127

For record "V42Y" the listed abundance fitness is -0.099

For record "S5F" the listed abundance fitness is -0.031
